- protocol-details: yeast display, Sf9 membrane polyspecificity reagent, FACS + sequencing; frameworks hold sequencing errors
readout: polyreactivity (PSR sort gate)

- QVQLVESGGGLVQAGGSLRLSCAASGFIFYYYAMGWYRQAPGKEREFVAGISRSGGSTYYADSVKGRFTISRDNAKNTVYLQMKSLKPEDTAVYYCAARYVQHKIYRLAQGEYWGQGTQVTVSS: high polyreactivity
- QVQLVESGGGLVQAGGSLRLSCGASGRIFYYYVMGWSRQGPGKERELVAVIDWSGGSTYYADSVKGRFTISRDNAKNTVYLQMNSLKPEDTAVYYCAKVWLKFSLAYEDYVYWGQGTQVTVSS: low polyreactivity
- QVQLVQSGGGLVQAGGSLRLSCAASGSTIAYKAMGWNRQAPGKEREMLAAISWRGGSTYYADSVKGRFTISRDNAKNTVYLQMKSLKPEDTAVYYCAKVYRAYTDVVRYGYWGQGSQVTVSS: high polyreactivity
- QVQLVESGGGLVQAGGSLRLSCAASGRTFVDYVMGWYRQAPGKERELVAAISRSGSTYYADSVKGRFTISRDNAKNTVYLQMNSLKPEDTAVYYCNVEYLRTYYILSDYWGQGTQVTVSS: low polyreactivity
- QVQLVESGGGLVQAGGSLRLSCAASGRTFAKYAMGWYRQAPGKERELVAAITRGDTTNYADSVKGRFTISRDNAKNTVYLQMNSLKPEDTGVYYCAATPDPPHTYEYWGQGTQVTVSS: low polyreactivity
- QVQLLESGVGLVQAGGSLRLSCAASGNTFYHYAMGLYRQAPGKERELVAAISLSGGSTYYADSVKGRFTISRDNAKNTVYLQMNSLKPEDTAVYYCAADIFYYSSSYGYWGQGTQVTVST: low polyreactivity
- QVQLVESGVGLVQAGGSLSLSCAASGIIFYWYAMGWYRQAPGKEREMVATITSTGGSTNYADSVKGRFTISRDNAKNSVYVQMNSLKPEYTAVYYCSTSGPQYYSRNFDYWGQGTQVTVSS: low polyreactivity
- QVQLVESGGGLVQAGGSLRLSCAASGSTFYHNVMGWSRQAPGKERELVASIDTGDSTNYADSVKGRFTISRDNAKNTVYLQMNSLKPEDTAVYYCNADSYPALNKRGYDYWGQGTQVTVSS: low polyreactivity
- QVQLVESGGGLVQAGGSLRLSCAASGRTFYYYTMGWYRQAPGKERELVAAITWNGGSTYYADSVKGRFTISRDNAKNTVYLQMNSLKPEDTAVYYCNARWTWRYDYWGQGTQVTVSS: high polyreactivity
